MEASUREMENT_DESCRIPTION: MTT cytotoxicity assay, HepG2
Assay type: cell-based, human
EXPERIMENTAL_PARAMETERS: human, HepG2 cells (hepatocellular carcinoma), HepG2, 12.5 ug/ml, 48 h, read-out: % Cell viability
ASSAY_METRIC: viability at 48 h, 12.5 µg/ml (%)
A number alone suffices; assume %.

Need viability at 48 h, 12.5 µg/ml, item COc1cccc2c1C(=O)c1c(O)c3c(c(O)c1C2=O)C[C@@](O)(C(=O)CO)C[C@@H]3O[C@H]1C[C@H](N)[C@H](O)[C@H](C)O1 [Doxorubicin, reference compound] 62.3

Record: COc1c(O)cc2oc(-c3ccccc3)c(OC)c(=O)c2c1O [5,7-Dihydroxy-3,6-dimethoxyflavone] 64.9

====

MEASUREMENT_DESCRIPTION: MTT cytotoxicity assay, HTC-116
Format: cell-based, human
EXPERIMENTAL_PARAMETERS: human, HTC-116 cells (human colorectal carcinoma), HTC-116, 6.25 ug/ml, 48 h
ASSAY_METRIC: cytotoxicity at 48 h, 6.25 µg/ml (%)
A number alone suffices; assume %.

Need cytotoxicity at 48 h, 6.25 µg/ml, item COc1c(O)cc2oc(-c3ccccc3)c(OC)c(=O)c2c1O [5,7-Dihydroxy-3,6-dimethoxyflavone] 29.8

Record: COc1cccc2c1C(=O)c1c(O)c3c(c(O)c1C2=O)C[C@@](O)(C(=O)CO)C[C@@H]3O[C@H]1C[C@H](N)[C@H](O)[C@H](C)O1 [Doxorubicin, reference compound] 31

====

MEASUREMENT_DESCRIPTION: MTT cytotoxicity assay, HepG2
Assay type: cell-based, human
EXPERIMENTAL_PARAMETERS: human, HepG2 cells (hepatocellular carcinoma), HepG2, 25 ug/ml, 48 h, read-out: % Cell viability
Would you kindly list viability at 48 h, 25 µg/ml for each of these compounds?
A number alone suffices; assume %.

Need viability at 48 h, 25 µg/ml, item COc1cccc2c1C(=O)c1c(O)c3c(c(O)c1C2=O)C[C@@](O)(C(=O)CO)C[C@@H]3O[C@H]1C[C@H](N)[C@H](O)[C@H](C)O1 [Doxorubicin, reference compound] 39.9

Record: COc1c(O)cc2oc(-c3ccccc3)c(OC)c(=O)c2c1O [5,7-Dihydroxy-3,6-dimethoxyflavone] 44.1

====

SUBJECT_OF_TEST: COX-1 (Ovis aries)
Sequence (P05979 25-600): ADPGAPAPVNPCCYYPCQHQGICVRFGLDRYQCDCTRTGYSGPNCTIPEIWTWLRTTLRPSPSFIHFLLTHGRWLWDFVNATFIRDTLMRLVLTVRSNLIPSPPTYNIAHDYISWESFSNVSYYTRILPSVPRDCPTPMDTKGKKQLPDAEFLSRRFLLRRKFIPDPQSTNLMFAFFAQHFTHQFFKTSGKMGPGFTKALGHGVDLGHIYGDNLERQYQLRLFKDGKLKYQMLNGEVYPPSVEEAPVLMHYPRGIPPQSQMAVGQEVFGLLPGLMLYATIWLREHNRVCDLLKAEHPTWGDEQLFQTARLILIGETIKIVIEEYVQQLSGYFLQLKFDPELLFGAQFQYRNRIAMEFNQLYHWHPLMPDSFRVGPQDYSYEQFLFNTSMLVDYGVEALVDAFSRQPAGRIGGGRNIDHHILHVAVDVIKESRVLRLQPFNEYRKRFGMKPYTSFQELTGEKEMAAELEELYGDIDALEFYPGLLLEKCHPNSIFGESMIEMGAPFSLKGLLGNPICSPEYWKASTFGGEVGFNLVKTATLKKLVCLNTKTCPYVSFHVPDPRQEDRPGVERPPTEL
ASSAY_METRIC: pIC50
pIC50 is a log-scale quantity: -log10 of the concentration expressed in molar.

Find pIC50 (COX-1 (Ovis aries)) for the entry COc1c(O)cc2oc(-c3ccccc3)c(OC)c(=O)c2c1O [5,7-Dihydroxy-3,6-dimethoxyflavone] 5.41

====

Would you kindly list cytotoxicity at 48 h, 25 µg/ml for each of these compounds?
MEASUREMENT_DESCRIPTION: MTT cytotoxicity assay, HepG2
Type: cell-based, human
EXPERIMENTAL_PARAMETERS: human, HepG2 cells (hepatocellular carcinoma), HepG2, 25 ug/ml, 48 h
A number alone suffices; assume %.

Need cytotoxicity at 48 h, 25 µg/ml, item COc1c(O)cc2oc(-c3ccccc3)c(OC)c(=O)c2c1O [5,7-Dihydroxy-3,6-dimethoxyflavone] 55.9

Record: COc1cccc2c1C(=O)c1c(O)c3c(c(O)c1C2=O)C[C@@](O)(C(=O)CO)C[C@@H]3O[C@H]1C[C@H](N)[C@H](O)[C@H](C)O1 [Doxorubicin, reference compound] 60.1
